assay: Vasodilation activity in rabbit aortic rings assessed as relaxation of 3 uM methoxamine-induced contraction in presence of 10 uM guanylate cyclase inhibitor 1H-[1,2,4]oxadiazolo[4,3-a]quinoxalin-1-one; type: functional, tissue-based; details: Oryctolagus cuniculus, Aorta
measured_metric: EC50 (µM)
Express the result in µM but write the number alone.

Problem: Return reported EC50; argument: `COc1cc(COC(=O)COCCOCCO[N+](=O)[O-])c(C(=O)O[C@@H](CNC(C)(C)C)COc2nsnc2N2CCOCC2)c(OC)c1.O=C(O)/C=C\C(=O)O`
Solution: 32.7

Problem: Return reported EC50; argument: `COc1cc(COC(=O)CCCCCO[N+](=O)[O-])c(C(=O)O[C@@H](CNC(C)(C)C)COc2nsnc2N2CCOCC2)c(OC)c1.O=C(O)/C=C\C(=O)O`
Solution: 56.3

Query molecule follows.
Problem: Return reported EC50; argument: `CC(C)(C)NC[C@H](O)COc1nsnc1N1CCOCC1`
Solution: 36.5

---

# log10 t1/2 per record follows
assay: Stability in rabbit corneal homogenate at 37 degC assessed as half life of timolol release; assay type: ADME, tissue-based, Oryctolagus cuniculus, Cornea; details: in vitro
In plain terms, each number is the log10 of measured t1/2 in h.

// solved cases for log10 t1/2 follow
Problem: Return reported log10 t1/2; argument: COc1cc(COC(=O)CCOCC(CO[N+](=O)[O-])O[N+](=O)[O-])c(C(=O)O[C@@H](CNC(C)(C)C)COc2nsnc2N2CCOCC2)c(OC)c1.O=C(O)/C=C\C(=O)O (stereo partly specified)
Solution: -0.18

Problem: Return reported log10 t1/2; argument: `COc1cc(COC(=O)COCCOCCO[N+](=O)[O-])c(C(=O)O[C@@H](CNC(C)(C)C)COc2nsnc2N2CCOCC2)c(OC)c1.O=C(O)/C=C\C(=O)O`
Solution: -0.78

Problem: Return reported log10 t1/2; argument: `COc1cc(COC(=O)C(C)(C)CO[N+](=O)[O-])c(C(=O)O[C@@H](CNC(C)(C)C)COc2nsnc2N2CCOCC2)c(OC)c1.O=C(O)/C=C\C(=O)O`
Solution: 0.30

Problem: Return reported log10 t1/2; argument: `COc1ccc(CO[N+](=O)[O-])cc1C(=O)O[C@@H](CNC(C)(C)C)COc1nsnc1N1CCOCC1.O=C(O)/C=C\C(=O)O`
Solution: 0.66

Problem: Return reported log10 t1/2; argument: `CC(C)(C)NC[C@@H](COc1nsnc1N1CCOCC1)OC(=O)c1ccccc1OCCO[N+](=O)[O-].O=C(O)/C=C\C(=O)O`
Solution: 0.63

Others:
Problem: Return reported log10 t1/2; argument: `COc1cc(COC(=O)CCCCCO[N+](=O)[O-])c(C(=O)O[C@@H](CNC(C)(C)C)COc2nsnc2N2CCOCC2)c(OC)c1.O=C(O)/C=C\C(=O)O`
Solution: -0.78

Problem: Return reported log10 t1/2; argument: `COc1cc(COC(=O)CCCO[N+](=O)[O-])c(C(=O)O[C@@H](CNC(C)(C)C)COc2nsnc2N2CCOCC2)c(OC)c1.O=C(O)/C=C\C(=O)O`
Solution: -0.70

---

assay: Chemical stability in pH 5.7 buffer at room temperature after 8 weeks; format: physicochemical; conditions: read-out: Stability
measured_metric: remaining at 1344 h (%)
Express the result in % but write the number alone.

// solved cases for remaining at 1344 h follow
Problem: Return reported remaining at 1344 h; argument: COc1cc(COC(=O)CCOCC(CO[N+](=O)[O-])O[N+](=O)[O-])c(C(=O)O[C@@H](CNC(C)(C)C)COc2nsnc2N2CCOCC2)c(OC)c1.O=C(O)/C=C\C(=O)O (stereo partly specified)
Solution: 91.7

Problem: Return reported remaining at 1344 h; argument: `COc1cc(OCCO[N+](=O)[O-])cc(C)c1C(=O)O[C@@H](CNC(C)(C)C)COc1nsnc1N1CCOCC1.O=C(O)/C=C\C(=O)O`
Solution: 99.6

Problem: Return reported remaining at 1344 h; argument: `COc1cc(COC(=O)CCCCCO[N+](=O)[O-])c(C(=O)O[C@@H](CNC(C)(C)C)COc2nsnc2N2CCOCC2)c(OC)c1.O=C(O)/C=C\C(=O)O`
Solution: 92.8

Problem: Return reported remaining at 1344 h; argument: `COc1cc(COC(=O)C(C)(C)CO[N+](=O)[O-])c(C(=O)O[C@@H](CNC(C)(C)C)COc2nsnc2N2CCOCC2)c(OC)c1.O=C(O)/C=C\C(=O)O`
Solution: 94.9

Problem: Return reported remaining at 1344 h; argument: `COc1cc(COC(=O)CCCCCO[N+](=O)[O-])cc(OC)c1C(=O)O[C@@H](CNC(C)(C)C)COc1nsnc1N1CCOCC1.O=C(O)/C=C\C(=O)O`
Solution: 96.8

Query molecule follows.
Problem: Return reported remaining at 1344 h; argument: `COc1cccc(OCCO[N+](=O)[O-])c1C(=O)O[C@@H](CNC(C)(C)C)COc1nsnc1N1CCOCC1.O=C(O)/C=C\C(=O)O`
Solution: 98.3
